measurement target: Plasmodium falciparum calcium-dependent protein kinase 1 (CDPK1) (Plasmodium falciparum)
Construct: 6-Histidine (N); made in house
Sequence (P62344 whole entry): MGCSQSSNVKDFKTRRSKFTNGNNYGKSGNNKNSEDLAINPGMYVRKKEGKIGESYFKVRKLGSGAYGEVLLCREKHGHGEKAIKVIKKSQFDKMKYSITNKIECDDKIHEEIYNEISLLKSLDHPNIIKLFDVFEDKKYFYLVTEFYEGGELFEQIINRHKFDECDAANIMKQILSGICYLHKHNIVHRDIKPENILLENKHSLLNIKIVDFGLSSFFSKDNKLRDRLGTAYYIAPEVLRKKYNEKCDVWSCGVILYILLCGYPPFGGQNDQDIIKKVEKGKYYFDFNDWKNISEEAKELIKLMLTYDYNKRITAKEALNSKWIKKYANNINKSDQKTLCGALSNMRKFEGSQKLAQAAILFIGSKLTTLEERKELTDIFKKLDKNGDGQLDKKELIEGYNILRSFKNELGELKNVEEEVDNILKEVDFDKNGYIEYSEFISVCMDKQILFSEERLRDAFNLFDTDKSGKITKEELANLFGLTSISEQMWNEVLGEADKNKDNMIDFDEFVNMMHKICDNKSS
experiment: CDPK1 Kinase-Glo ATP-consumption screen and dose-response
Type: biochemical
run parameters: hits below 1 uM; read-out: CDPK1 IC50
readout name: IC50 (nM)

Below, each entry is followed by its recorded IC50 result.
CCn1c(-c2nonc2N)nc2c(-c3cccc(NC(=O)Nc4ccc5c(c4)CCC5)c3)ncc(OCCCN)c21.O=C(O)C(F)(F)F [TCMDC-136191]: 85
CCn1c(-c2nonc2N)nc2c(-c3cccc(NC(=O)Nc4ccc(C#N)cc4)c3)ncc(OCCCN)c21.O=C(O)C(F)(F)F [TCMDC-136194]: 235
COCCNCc1cccc(-c2ccc3c(Nc4cc(O)c(Cl)cc4F)ccnc3c2)c1 [TCMDC-138429]: 436
Cl.Oc1cccc(Nc2ccnc3cc(-c4nccs4)ccc23)c1 [TCMDC-138297]: 997

a: Nc1ncc(-c2cn[nH]c2)cc1-c1nc2ccc(Cl)cc2[nH]1 [TCMDC-133560]
b: O=C(Nc1cccc(-c2nn3ncccc3c2-c2ccnc(Nc3cccc(-c4cnco4)c3)n2)c1)c1c(F)cccc1F [TCMDC-135550]
c: CS(=O)(=O)Nc1cccc(-c2cnc3[nH]cc(-c4ccc(CN)cc4)c3c2)c1 [TCMDC-136218]
Please put the entries in order of rising IC50. Write the labels out in the order the request specifies.
b, c, a
(b: 23 nM, c: 552 nM, a: 834 nM)

====

measurement target: MAP3K11 (Homo sapiens, UniProt Q16584)
Sequence (Q16584 whole entry): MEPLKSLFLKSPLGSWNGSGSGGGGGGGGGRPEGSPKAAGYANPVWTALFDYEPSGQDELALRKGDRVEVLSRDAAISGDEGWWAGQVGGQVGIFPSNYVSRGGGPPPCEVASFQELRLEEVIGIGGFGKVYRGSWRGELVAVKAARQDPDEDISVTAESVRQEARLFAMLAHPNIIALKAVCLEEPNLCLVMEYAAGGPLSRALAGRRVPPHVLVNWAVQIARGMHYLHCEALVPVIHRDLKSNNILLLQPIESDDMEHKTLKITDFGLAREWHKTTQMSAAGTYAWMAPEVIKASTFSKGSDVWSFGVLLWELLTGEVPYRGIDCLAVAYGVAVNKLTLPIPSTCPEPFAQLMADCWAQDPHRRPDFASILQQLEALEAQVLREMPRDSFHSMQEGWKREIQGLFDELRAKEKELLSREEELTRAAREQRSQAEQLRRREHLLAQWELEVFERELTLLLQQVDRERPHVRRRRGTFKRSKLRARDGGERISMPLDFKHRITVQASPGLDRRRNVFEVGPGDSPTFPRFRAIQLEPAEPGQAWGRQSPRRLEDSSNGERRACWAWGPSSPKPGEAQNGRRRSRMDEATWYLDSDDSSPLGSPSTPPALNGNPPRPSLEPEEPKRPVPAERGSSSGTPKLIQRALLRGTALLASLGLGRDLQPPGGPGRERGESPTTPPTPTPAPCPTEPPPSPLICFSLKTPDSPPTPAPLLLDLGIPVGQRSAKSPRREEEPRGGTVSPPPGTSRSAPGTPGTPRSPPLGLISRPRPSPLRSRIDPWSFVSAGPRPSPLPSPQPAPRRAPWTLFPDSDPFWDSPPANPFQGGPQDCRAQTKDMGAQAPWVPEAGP
readout name: pIC50
Quick note: pIC50 means taking -log10 of the concentration in moles per liter.

# pIC50 lookup, item `CN1CCN(c2ccc(Nc3ncc(C#N)c(Nc4ccccc4C(N)=O)n3)cc2)CC1.Cl`
7.05

====

measurement target: ERN1 (Homo sapiens, UniProt O75460)
experiment: biochemical
run parameters: read-out: KDapp
readout name: Kd (nM)
Supply the numeric figure in nM, leaving out any unit text.

Query the reported Kd for ERN1 (Homo sapiens, UniProt O75460); item: `CN1CCN(c2ccc(Nc3ncc(C#N)c(Nc4ccccc4C(N)=O)n3)cc2)CC1.Cl`
127

====

measurement target: PIP5K3 (Homo sapiens, UniProt Q9Y2I7)
experiment: biochemical
run parameters: read-out: KDapp
readout name: pKd
Remember, pKd is on a log scale: it is -log10 of the molar concentration.

Fill blank: measured pKd of the compound Cl.NCC1(c2nc(-c3ccc(Cl)c(O)c3)c(-c3ccncc3)[nH]2)CCCCC1 [TCMDC-141154] is ____.
6.28

====

measurement target: UniProt Q9Y6R4
Sequence (Q9Y6R4 whole entry): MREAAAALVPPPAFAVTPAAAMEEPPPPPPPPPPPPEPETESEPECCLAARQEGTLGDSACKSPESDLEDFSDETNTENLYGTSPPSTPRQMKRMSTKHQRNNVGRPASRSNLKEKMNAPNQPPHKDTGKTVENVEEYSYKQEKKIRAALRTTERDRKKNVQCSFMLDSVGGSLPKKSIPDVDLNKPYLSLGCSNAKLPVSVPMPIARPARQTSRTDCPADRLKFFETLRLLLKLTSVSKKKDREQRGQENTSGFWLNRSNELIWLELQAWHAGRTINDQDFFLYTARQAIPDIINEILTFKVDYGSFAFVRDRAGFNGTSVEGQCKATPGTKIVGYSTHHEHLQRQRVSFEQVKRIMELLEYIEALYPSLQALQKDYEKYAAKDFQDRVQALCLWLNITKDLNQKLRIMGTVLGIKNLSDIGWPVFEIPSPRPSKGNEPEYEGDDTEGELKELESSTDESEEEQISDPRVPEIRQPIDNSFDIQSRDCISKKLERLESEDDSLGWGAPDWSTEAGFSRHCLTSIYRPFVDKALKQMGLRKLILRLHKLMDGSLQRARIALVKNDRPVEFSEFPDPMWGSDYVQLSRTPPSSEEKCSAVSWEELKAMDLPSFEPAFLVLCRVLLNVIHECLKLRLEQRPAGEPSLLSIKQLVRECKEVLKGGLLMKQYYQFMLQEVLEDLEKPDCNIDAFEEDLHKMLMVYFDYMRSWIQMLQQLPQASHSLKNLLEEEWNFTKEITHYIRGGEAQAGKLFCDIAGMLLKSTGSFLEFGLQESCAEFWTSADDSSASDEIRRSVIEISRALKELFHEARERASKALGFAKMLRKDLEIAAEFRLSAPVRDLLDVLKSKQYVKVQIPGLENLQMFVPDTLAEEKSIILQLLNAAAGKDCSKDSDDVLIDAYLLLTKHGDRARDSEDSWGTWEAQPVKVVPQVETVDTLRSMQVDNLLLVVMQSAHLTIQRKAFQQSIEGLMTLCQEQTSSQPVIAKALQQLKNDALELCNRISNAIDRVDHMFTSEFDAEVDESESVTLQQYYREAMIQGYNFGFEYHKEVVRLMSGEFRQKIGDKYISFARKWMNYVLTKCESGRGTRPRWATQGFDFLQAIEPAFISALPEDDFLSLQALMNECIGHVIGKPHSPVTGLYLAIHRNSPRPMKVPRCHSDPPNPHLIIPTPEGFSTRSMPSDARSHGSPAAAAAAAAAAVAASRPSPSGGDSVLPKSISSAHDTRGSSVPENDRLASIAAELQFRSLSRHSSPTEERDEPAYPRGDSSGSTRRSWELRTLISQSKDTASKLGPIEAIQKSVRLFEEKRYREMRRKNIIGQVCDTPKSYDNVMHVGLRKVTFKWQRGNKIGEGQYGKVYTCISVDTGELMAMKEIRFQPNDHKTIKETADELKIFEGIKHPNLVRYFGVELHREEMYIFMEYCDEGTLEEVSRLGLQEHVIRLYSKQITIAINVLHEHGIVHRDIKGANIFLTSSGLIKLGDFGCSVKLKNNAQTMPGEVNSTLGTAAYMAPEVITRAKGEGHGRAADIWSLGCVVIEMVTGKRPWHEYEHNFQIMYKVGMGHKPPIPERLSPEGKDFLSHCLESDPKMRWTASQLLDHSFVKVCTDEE
experiment: biochemical
run parameters: read-out: KDapp
readout name: Kd (nM)
# number only, unit nM dropped from output

Kindly state the measured Kd obtained for CN(C)CC(O)COc1ccc(Nc2ncc([N+](=O)[O-])c(Nc3ccccc3O)n2)cc1.O=C(O)C(F)(F)F (stereo not shown) [TCMDC-141399] with UniProt Q9Y6R4.
426

====

measurement target: HIPK2 (Homo sapiens, UniProt Q9H2X6)
Sequence (Q9H2X6 whole entry): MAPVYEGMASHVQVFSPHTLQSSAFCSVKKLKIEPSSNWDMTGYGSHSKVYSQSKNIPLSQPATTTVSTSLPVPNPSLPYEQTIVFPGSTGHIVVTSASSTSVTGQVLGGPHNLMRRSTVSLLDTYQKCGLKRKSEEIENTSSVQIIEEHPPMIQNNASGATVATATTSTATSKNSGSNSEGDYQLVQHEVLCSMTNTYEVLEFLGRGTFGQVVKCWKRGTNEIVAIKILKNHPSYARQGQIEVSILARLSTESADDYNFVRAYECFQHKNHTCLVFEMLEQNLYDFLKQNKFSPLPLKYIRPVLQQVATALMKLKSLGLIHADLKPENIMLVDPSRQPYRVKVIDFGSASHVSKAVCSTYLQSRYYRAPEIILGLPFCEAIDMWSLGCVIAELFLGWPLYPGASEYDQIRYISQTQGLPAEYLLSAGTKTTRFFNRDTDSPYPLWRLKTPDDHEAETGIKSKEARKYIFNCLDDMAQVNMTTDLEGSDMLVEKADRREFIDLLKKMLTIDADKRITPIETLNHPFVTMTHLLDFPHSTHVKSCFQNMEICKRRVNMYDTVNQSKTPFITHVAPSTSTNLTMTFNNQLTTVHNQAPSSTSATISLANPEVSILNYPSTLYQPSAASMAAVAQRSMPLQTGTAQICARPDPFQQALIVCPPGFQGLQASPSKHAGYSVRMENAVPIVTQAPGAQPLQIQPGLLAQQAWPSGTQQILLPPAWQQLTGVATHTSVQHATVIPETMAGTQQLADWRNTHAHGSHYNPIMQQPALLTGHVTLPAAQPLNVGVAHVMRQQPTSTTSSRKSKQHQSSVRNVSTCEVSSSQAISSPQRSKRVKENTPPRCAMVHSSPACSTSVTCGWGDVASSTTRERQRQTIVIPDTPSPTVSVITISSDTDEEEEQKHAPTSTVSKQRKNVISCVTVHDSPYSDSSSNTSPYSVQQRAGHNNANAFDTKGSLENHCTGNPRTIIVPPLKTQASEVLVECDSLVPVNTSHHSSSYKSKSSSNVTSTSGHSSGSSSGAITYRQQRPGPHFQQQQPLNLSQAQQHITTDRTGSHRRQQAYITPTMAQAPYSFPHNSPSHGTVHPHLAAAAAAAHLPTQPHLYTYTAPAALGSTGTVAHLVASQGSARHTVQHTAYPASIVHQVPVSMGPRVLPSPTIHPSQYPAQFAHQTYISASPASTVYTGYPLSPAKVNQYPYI
readout name: IC50

// lookup IC50 for `Cl.NCC1(c2nc(-c3ccc(Cl)c(O)c3)c(-c3ccncc3)[nH]2)CCCCC1`
> 20 µM

====

measurement target: MAP3K3 (Homo sapiens, UniProt Q99759)
Sequence (Q99759 whole entry): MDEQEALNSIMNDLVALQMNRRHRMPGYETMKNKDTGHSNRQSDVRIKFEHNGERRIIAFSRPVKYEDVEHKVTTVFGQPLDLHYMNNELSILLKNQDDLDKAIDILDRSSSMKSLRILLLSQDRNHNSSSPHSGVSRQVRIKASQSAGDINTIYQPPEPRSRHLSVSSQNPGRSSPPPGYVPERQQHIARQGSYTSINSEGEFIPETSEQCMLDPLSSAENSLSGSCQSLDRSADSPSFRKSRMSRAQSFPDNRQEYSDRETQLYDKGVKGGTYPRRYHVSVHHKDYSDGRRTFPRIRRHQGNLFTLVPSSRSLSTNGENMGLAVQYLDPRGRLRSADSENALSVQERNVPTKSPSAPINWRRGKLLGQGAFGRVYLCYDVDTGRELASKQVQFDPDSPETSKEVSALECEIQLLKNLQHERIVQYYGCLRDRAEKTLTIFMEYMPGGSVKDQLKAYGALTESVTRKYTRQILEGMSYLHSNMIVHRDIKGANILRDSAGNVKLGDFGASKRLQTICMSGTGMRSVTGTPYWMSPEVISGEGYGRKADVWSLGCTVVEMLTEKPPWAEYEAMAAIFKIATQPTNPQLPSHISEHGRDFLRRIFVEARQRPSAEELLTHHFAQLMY
experiment: biochemical
run parameters: read-out: KDapp
readout name: Kd (µM)
Write the number in µM without appending the unit.

CN(C)CC(O)COc1ccc(Nc2ncc([N+](=O)[O-])c(Nc3ccccc3O)n2)cc1.O=C(O)C(F)(F)F (centres unmarked): 3.4

Fill in: Kd of `CN1CCN(c2ccc(Nc3ncc(C#N)c(Nc4ccccc4C(N)=O)n3)cc2)CC1.Cl` is ___
0.176

====

measurement target: PIK3C3 (Homo sapiens, UniProt Q8NEB9)
readout name: IC50 (nM)
Numbers only; they are read as nM.

Please tell me: IC50 of `CN1CCN(c2ccc(Nc3ncc(C#N)c(Nc4ccccc4C(N)=O)n3)cc2)CC1.Cl` , system PIK3C3 (Homo sapiens, UniProt Q8NEB9)?
1100

====

measurement target: ULK1 (Homo sapiens)
Sequence (O75385 1-1050): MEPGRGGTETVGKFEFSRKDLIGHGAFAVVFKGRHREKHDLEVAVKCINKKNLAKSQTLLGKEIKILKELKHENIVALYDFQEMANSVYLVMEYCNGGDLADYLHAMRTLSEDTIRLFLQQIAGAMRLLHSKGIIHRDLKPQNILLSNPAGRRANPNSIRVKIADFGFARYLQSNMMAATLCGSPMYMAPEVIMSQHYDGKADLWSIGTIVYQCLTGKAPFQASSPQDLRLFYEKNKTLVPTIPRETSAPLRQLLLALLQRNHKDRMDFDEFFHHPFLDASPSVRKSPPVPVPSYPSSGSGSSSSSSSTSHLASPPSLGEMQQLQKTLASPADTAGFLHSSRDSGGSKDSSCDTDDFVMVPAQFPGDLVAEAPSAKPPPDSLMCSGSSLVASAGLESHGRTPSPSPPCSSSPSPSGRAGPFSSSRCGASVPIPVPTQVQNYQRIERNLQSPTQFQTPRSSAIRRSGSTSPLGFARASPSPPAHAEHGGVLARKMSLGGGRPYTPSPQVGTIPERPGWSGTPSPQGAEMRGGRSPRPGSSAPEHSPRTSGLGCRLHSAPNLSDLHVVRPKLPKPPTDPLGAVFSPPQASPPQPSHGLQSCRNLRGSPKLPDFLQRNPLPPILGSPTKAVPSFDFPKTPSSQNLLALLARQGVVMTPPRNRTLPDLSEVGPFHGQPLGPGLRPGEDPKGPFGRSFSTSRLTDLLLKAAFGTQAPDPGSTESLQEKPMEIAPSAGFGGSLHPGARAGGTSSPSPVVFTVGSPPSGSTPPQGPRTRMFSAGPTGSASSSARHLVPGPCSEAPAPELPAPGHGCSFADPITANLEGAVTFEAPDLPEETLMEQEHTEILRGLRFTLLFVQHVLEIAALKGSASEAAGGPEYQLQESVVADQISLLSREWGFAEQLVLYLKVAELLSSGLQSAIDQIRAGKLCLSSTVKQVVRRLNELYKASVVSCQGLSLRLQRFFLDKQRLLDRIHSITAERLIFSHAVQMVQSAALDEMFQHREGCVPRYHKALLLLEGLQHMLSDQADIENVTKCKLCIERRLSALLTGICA
experiment: biochemical
run parameters: read-out: KDapp
readout name: Kd (nM)
A number alone suffices; assume nM.

Query: Kd; subject: `CN1CCN(c2ccc(Nc3ncc(C#N)c(Nc4ccccc4C(N)=O)n3)cc2)CC1.Cl`
95

====

measurement target: PCTK2 (Homo sapiens)
readout name: IC50

Item `Cl.NCC1(c2nc(-c3ccc(Cl)c(O)c3)c(-c3ccncc3)[nH]2)CCCCC1` with PCTK2 (Homo sapiens) - IC50?
> 20 µM

====

measurement target: PRKACB (Homo sapiens, UniProt P22694)
experiment: biochemical
run parameters: read-out: KDapp
Parameter: pKd. Scope: all listed entries.
Please keep in mind that pKd is minus log10 of the molar concentration; only the number is needed.

Cl.NCC1(c2nc(-c3ccc(Cl)c(O)c3)c(-c3ccncc3)[nH]2)CCCCC1: 6.09

Consider the record given below.
Please give the measured pKd for this molecule: `CN1CCN(c2ccc(Nc3ncc(C#N)c(Nc4ccccc4C(N)=O)n3)cc2)CC1.Cl`
5.24

====

measurement target: STK39 (Homo sapiens, UniProt Q9UEW8)
experiment: biochemical
run parameters: read-out: KDapp
readout name: Kd (nM)
# number only, unit nM dropped from output

CN(C)CC(O)COc1ccc(Nc2ncc([N+](=O)[O-])c(Nc3ccccc3O)n2)cc1.O=C(O)C(F)(F)F (centres unmarked): 4760

Requested field: Kd. Item: `CN1CCN(c2ccc(Nc3ncc(C#N)c(Nc4ccccc4C(N)=O)n3)cc2)CC1.Cl`
58

====

measurement target: RPS6KA1 (Homo sapiens, UniProt Q15418)
experiment: biochemical
run parameters: read-out: KDapp
readout name: Kd (nM)
Express your answer in nM, writing the number without its unit.

So what does the record say about Kd for `CN1CCN(c2ccc(Nc3ncc(C#N)c(Nc4ccccc4C(N)=O)n3)cc2)CC1.Cl` ?
96

====

# PRKCA (Homo sapiens): pIC50 values follow
pIC50: −log10 of the molar value.

Known pIC50 results, listed for orientation:
CN1CCN(c2ccc(Nc3ncc(C#N)c(Nc4ccccc4C(N)=O)n3)cc2)CC1.Cl [TCMDC-134116]: 6.13
CN(C)CC(O)COc1ccc(Nc2ncc([N+](=O)[O-])c(Nc3ccccc3O)n2)cc1.O=C(O)C(F)(F)F (stereo not drawn) [TCMDC-141399]: < 4.70

Now for the compound whose pIC50 we want.
Form field: reported pIC50 of Cl.NCC1(c2nc(-c3ccc(Cl)c(O)c3)c(-c3ccncc3)[nH]2)CCCCC1 [TCMDC-141154]
< 4.70

====

measurement target: Plasmodium falciparum protein kinase 6 (PK6) (Plasmodium falciparum)
Construct: 6-Histidine (N); made in house
Sequence (Q8IDW1 1-305): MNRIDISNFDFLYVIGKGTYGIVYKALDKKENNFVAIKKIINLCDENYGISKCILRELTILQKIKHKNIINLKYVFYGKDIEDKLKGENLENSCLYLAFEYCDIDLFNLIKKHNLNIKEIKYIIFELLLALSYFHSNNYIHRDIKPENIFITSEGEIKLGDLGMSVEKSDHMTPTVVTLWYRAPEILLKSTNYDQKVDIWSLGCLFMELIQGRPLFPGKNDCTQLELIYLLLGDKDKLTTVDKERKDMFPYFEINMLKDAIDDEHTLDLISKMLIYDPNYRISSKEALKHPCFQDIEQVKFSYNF
experiment: biochemical
run parameters: hits below 1 uM; read-out: PK6 IC50
readout name: IC50 (nM)

Examples with their reported IC50 follow.
C(=N\Nc1nccc2sc(-c3ccccc3)cc12)/c1cccnc1 [TCMDC-135190]: 278
CNC(=O)c1ccccc1Nc1nc(Nc2cccc(CS(C)(=O)=O)c2)ncc1C.O=CO [TCMDC-133809]: 133

1: Cl.N=C(N)c1ccc(Nc2nc(Nc3ccc(-c4ccccc4)cc3)ncc2[N+](=O)[O-])cc1 [TCMDC-136145]
2: NS(=O)(=O)c1cccc(Nc2nccc(-c3cnn4ncccc34)n2)c1 [TCMDC-138919]
// pick min by IC50: 1 , 2 Returns: label corresponding to the selected item.
1
